So I've got IC50 readings for Aromatase (Homo sapiens), take a look.

>>> df
                                   compound               test_system  recorded_endpoint  test_value
0  C[C@]12CC[C@H](O)CC1=CC[C@@H]1[C@@H]2CC[C@]2(C)C(c3ccncc3)=CC[C@@H]12  Aromatase (Homo sapiens)               IC50     > 20 µM
1  C[C@]12CCC(=O)C=C1CCC1C2CC[C@]2(C)C(c3cccnc3)=CCC12 (some centres undefined)  Aromatase (Homo sapiens)               IC50      1.8 µM
2  C[C@]12CC[C@H](O)CC1=CC[C@@H]1[C@@H]2CC[C@]2(C)C(c3cccnc3)=CC[C@@H]12  Aromatase (Homo sapiens)               IC50     > 20 µM

# input Reported IC50 for C[C@]12CC[C@H](O)CC1=CC[C@@H]1[C@@H]2CC[C@]2(C)C(c3ccccn3)=CC[C@@H]12 : what is it?
# output > 20 µM
